target: Pseudo wild type SAP97 PDZ2 (second PDZ domain of synapse associated protein 97, I342W/C378A) (human) (UniProt Q12959); experiment: stopped-flow spectroscopy
Sequence (Q12959 311-407, stated change not applied): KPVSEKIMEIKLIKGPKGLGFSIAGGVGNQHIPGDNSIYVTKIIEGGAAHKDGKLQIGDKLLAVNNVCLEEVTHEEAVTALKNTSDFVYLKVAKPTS
Ends that are not written are not given here.
METRIC_NAME: koff (s⁻¹)
The response must be a number in s⁻¹ with no trailing unit.

See these solved cases before continuing.
| BINDER | ASSAY_VALUE |
| --- | --- |
| Ac-PGKETQL [PGKETQL peptide (C-terminus of SO1C1_HUMAN)] | 51 |
| Ac-NSKETVV [NSKETVV peptide (C-terminus of E3 ubiquitin-protein ligase MARCH3)] | 8.6 |
| Ac-TSRETDL [TSRETDL peptide (C-terminus of potassium voltage-gated channel subfamily A member 5, Kv1.5)] | 71 |
| Ac-EKKHTLL [EKKHTLL peptide (C-terminus of E9PN86_HUMAN, partial transcript of EIF3M_HUMAN)] | 112 |

What measured koff goes with SARSTDV [SARSTDV peptide (C-terminus of anoctamin-9)] ?
26

What measured koff goes with Ac-YRRESAI [YRRESAI peptide (C-terminus of inward rectifier potassium channel 4, Kir2.3)] ?
87

What measured koff goes with Ac-KRKETLV [KRKETLV peptide (C-terminus of neuroepithelial cell-transforming gene 1 protein, Net1)] ?
3

What measured koff goes with Ac-RSISTDV [RSISTDV peptide (C-terminus of protein FAM163B)] ?
26

What measured koff goes with Ac-VSKETPL [VSKETPL peptide (C-terminus of mitogen-activated protein kinase 12, p38γ)] ?
154
